# reported IC50; entries follow
# System: GP2D cells
# experimental-protocol: Cell proliferation assay (CellTiter-Glo), K-Ras G12D cells
# Type: cell-based
# condition-context: GP2d, read-out: Inhibition of GP2D Cells (IC50)
measurement-name: IC50

> print(dat)
                                   compound  measurement.name   observed
1  N#Cc1cnn(C(=O)N2CC3CCC(C2)N3c2nc(OC[C@@]34CCCN3C[C@H](F)C4)nc3c(F)c(-c4ccc(F)c5sc(N)nc45)c(Cl)cc23)c1 [Compound A112]              IC50  ≤ 1000 nM
2  Nc1nc2c(-c3c(Cl)cc4c(N5CC6CCC(C5)N6C(=O)n5cnc(F)c5)nc(OC[C@@]56CCCN5C[C@H](F)C6)nc4c3F)ccc(F)c2s1 [Compound A135]              IC50  ≤ 1000 nM
3  N#Cc1cn(C(=O)N2C3CCC2CN(c2nc(OC[C@@]45CCCN4C[C@H](F)C5)nc4c(F)c(-c5ccc(F)c6sc(N)nc56)c(Cl)cc24)C3)cn1 [Compound A123]              IC50  ≤ 1000 nM
4  N#Cc1c(N)sc2c(F)ccc(-c3c(Cl)cc4c(N5CC6CCC(C5)N6C(=O)n5cccc5C#N)nc(OC[C@@]56CCCN5C[C@H](F)C6)nc4c3F)c12 [Compound A138]              IC50  ≤ 1000 nM
5  N#Cc1ccn(C(=O)N2C3CCC2CN(c2nc(OC[C@@]45CCCN4C[C@H](F)C5)nc4c(F)c(-c5ccc(F)c6sc(N)nc56)c(Cl)cc24)C3)c1 [Compound A188]              IC50  ≤ 1000 nM
